Origin of values: PubChem BioAssay (NCI)

Could you please report measured growth for the items listed next?
# System: OVCAR-8 ovarian
# test summary: NCI-60 one-dose screen, 48 h (100 = growth as untreated, 0 = no growth, -100 = all killed)
# test parameters: 10 µM unless noted
About 83,000 compounds went through this panel and 20% of them were active in at least one assay; those are over-represented in the sample as a whole.
One number for each entry, in %.

Give growth for each listed item.
1. CC1(C)NC(=S)NC1=O
2. COc1cc(-c2nn(-c3ccc(NC(=O)c4ccc(Cl)c(C(F)(F)F)c4)cc3)cc2-c2ccncc2)ccc1Cl
3. CC(C)(C)c1ccc([I+]c2ccc(C(C)(C)C)cc2)cc1
4. CCOC(=O)CSSCC(=O)OCC
5. COc1cccc(-c2cc(-c3cc4ccccc4oc3=O)nc(N)n2)c1

## Output
1: 106; 2: 49.2; 3: 7.15; 4: 101; 5: 111

For every record below, what is its growth?
1. CC[n+]1c(C)ccc2cc(C)ccc21
2. CC(=O)c1nn(-c2ccc(C)cc2)cc1C(=O)c1cc2c(ccc3ccccc32)oc1=O
3. CCCCCN1CCN(C(CC(=O)c2ccccc2)C(=O)c2ccccc2)CC1 (stereo unspecified)
4. CC(=O)Nc1nc(C)c(C(=O)N/N=C/N2CCOCC2)s1
5. O=C(NCCO)C(F)(F)F
6. O=C(/C=C/c1c[nH]c2ccccc12)c1cc2ccccc2o1
7. CCOC(=O)NNc1[nH]c(-c2ccc(OC)cc2)cc1C#N

## Output
1. 88.4
2. 101
3. 101
4. 115
5. 103
6. 99.3
7. 99.5

Go through the items and report each one's growth.
1. O=c1[nH]c(=S)[nH]c(O)c1/C=C1\C=Nc2ccccc21
2. COc1cccc(NC(=O)NCCNc2nccc(-c3c(-c4ccc(F)cc4)nc4sccn34)n2)c1
3. CC(=O)Nc1ccc(CC#N)cc1Br
4. O=C(/C=C/c1cccc(O)c1)c1cccc(-n2cc(-c3ccc(Cl)cc3)[nH]c2=O)c1
5. CC([C@H]1CC=C2C3CCC4=C[C@@H](N(C)C)CC[C@]4(C)C3CC[C@@]21C)N(C)C (stereo partly specified)
6. CCCCCCC(=O)C(C)C
7. COC(=O)c1ccc2[nH]c(O)c(C(=Nc3ccc(N(C)C(=O)CN4CCN(C)CC4)cc3)c3ccc(C)cc3)c2c1
8. COC(=O)c1cc(O)c2cc3c(cc2c1-c1cc(OC)c(OC)c(OC)c1)OCO3

## Output
[48.6, 65.5, 110, -2.92, 85.3, 99.1, -17.8, 45.8]

Look up growth for the entries below, preserving their order.
1. CCCCCCCCc1ccc(CCC(N)(CO)CO)cc1
2. CCOC1=C(Cl)C(=O)C(OCC)=C(Cl)C1=O
3. Cn1c2ccccc2c2ccccc21
4. Cc1nnc(/N=C2\NC(=O)/C(=C/C=C/c3ccccc3)S2)s1
5. Cc1nc2c(nnn2-c2ccccc2)c2nc(-c3ccccc3)oc(=O)c12
6. O=C1C(Cl)=C(SC2=NCCN2)C(=O)c2ccccc21

## Output
1: -68.6; 2: 104; 3: 98.3; 4: 49.5; 5: 111; 6: 65.8
